Parameter: number of phage subclones containing that sequence. Scope: all listed entries.
- System: BTIC isolates (BTIC 12, 25, 42, 50)
- procedureSummary: Biopanning of phage display library against a mixture of BTIC isolates, sequencing of subclones
- measurementContext: BTIC-binding phage subclones; given as n/50 subclones screened
recordedMetric: number of phage subclones containing that sequence

itemSequence	assayValue
SLHMRHKRKPRR (synthetic BTIC targeting peptide) [E10]	4/50
SSRSMQRTLIIS (synthetic BTIC targeting peptide) [3F]	2/50
PSPHRQRQHILR (synthetic BTIC targeting peptide) [7A]	25/50
QTIRIIIRRSRT (synthetic BTIC targeting peptide) [10C]	6/50
KTSMRPLILIHI (synthetic BTIC targeting peptide) [3B]	2/50
IRSIRMRRILIL (synthetic BTIC targeting peptide) [C1]	2/50
